Origin of values: the supplement of paper PMC10567573

Below: a set of entries, each annotated with reported protein stability index.
- PROTOCOL_DETAILS: protein stability index of a GFP-peptide fusion (GPS, HEK-293T) (PSI 1-6); higher = more stable;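 note: 24-mer peptide tiles fused after GFP, lentivirally expressed, FACS-sorted into six equal bins by GFP/DsRed ratio, decoded by Illumina sequencing, PSI is the read-weighted mean bin number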
- SETUP_CONDITIONS: treatment: MLN4924 1 uM, 8 h; c terminus: a fixed tail appended
I'd appreciate a reply containing only the number, no unit.

SEQ	protein stability index
SSGRELGRPKELQPKKLHLCPLCG [ZNF263]	3.99
QKPEFQDLSVEERSFVEKHRWPSN [RHOBTB3]	4.04
RFNLILADTNSDRLFTVNDVKVGG [DCAF4]	2.31
DFHQGLLSFYNARTKQVLHTFKTR [FSD1]	2.28
RTANPSKTIDLGAAAHYTGDKASP [CLINT1]	4.93
AVYDGSSSVEDLKAKFCSTVANDV [NETO1]	4.17
AQDLGELLATAEQEQLSLSQRQAK [LRRC45]	5.34
PGGGRLLLSTSLDAKDELEERLER [INTS3]	4.84

Prompt: Quick one: protein stability index for REGALRAALQRSLAAALAQHSVPL [TRADD] ?
Completion: 2.28

Prompt: Also SESEQEFLYKTAGGLIYWIGLTKA [CD207] , if possible.
Completion: 2.11

====

- PROTOCOL_DETAILS: protein stability index of a GFP-peptide fusion (GPS, HEK-293T) (PSI 1-6); higher = more stable
- SETUP_CONDITIONS: treatment: DMSO; c terminus: a fixed tail appended
Reported protein stability index values follow for various sequences
Output spec: single numeric token, no unit.

Look over these answered cases.
SEQ	protein stability index
MEACMDGHVEVARLLLDSGAQVNM [ANKRD17]	2.98
MSTGPIAESWCYTQVKVVKFSYMW [SPOPL]	2.41
PDDLLTTLDDTCDLFAPLVQETNK [ATF4]	5.12
LGNEYPKLHYPELYVLKGGYKEFF [CDC25A]	2.02
KEAQYIRTELVEQAFRAIDRADYY [PCMTD2]	2.71
NDAYGPPSNFLEIDVSNPQTVGVG [SNX3]	4.68
RNGMASEGLNSSLCSPGHERRGTP [PSD2]	4.72
CFYRGYTSGVAAVQDWYHFHYVDI [SCNN1D]	3.06

With those in mind, consider the next sequence.
Prompt: Give its protein stability index value. Item: LARRRRRRQARREAEADKPRRLGR [NOP53]
Completion: 4.63

====

- PROTOCOL_DETAILS: protein stability index of a GFP-peptide fusion (GPS, HEK-293T) (PSI 1-6); higher = more stable
- SETUP_CONDITIONS: treatment: MLN4924 1 uM, 8 h; c terminus: a fixed tail appended
Please assign a class to every record based on measured protein stability index, with ranges low: < 3; mid: ≥ 3 and < 4; high: ≥ 4

Previously resolved entries follow.
SEQ	CLASS_ASSIGNMENT
KSSAQGPIPWFLPESRSLPSSPLR [PPEF2]	mid
LMLAGMGLHYIAFRKVKQMHLNFM [DNAJC4]	low
PTDRNLCHFQALGCRTTHSNQEVL [PYCR3]	low
TSSLAQPGAYYPYERTLGQYQYER [IRX6]	mid
ASASCSHWRECLFYPALWPQLRIC [FBXO33]	low
QYEGHVNEYAYLPLHVHEEEGILV [DCAF4]	mid

Prompt: Looking at GNQDYKYRVSDVTKAGHSLELIEP [VDR] , which class would you pick?
Completion: high

Prompt: Next entry: LLAPGEQSLPCTERKPAATARLSR [KISS1]
Completion: high

Prompt: Also check LASRIRSNKKMLLLVGGLPPGPDR [KLHL14]
Completion: low

Prompt: Proceed to GLLLESLVPFIVNDNITNNFFRFL [DYNC2LI1]
Completion: mid

Prompt: Would you mind doing PSQDERMRSPQNLHSQEDDDSSSE [NOL4L] as well?
Completion: high

Prompt: Let us now turn to DVEGAESQLDEDEHGLHTKYIHRM [TRAF3IP2]
Completion: high
